For each record, write down the corresponding IC50.
Biological target: human KHK-A (Homo sapiens (Human))
Sequence (P50053 other isoform, or with tags, fused parts or gaps): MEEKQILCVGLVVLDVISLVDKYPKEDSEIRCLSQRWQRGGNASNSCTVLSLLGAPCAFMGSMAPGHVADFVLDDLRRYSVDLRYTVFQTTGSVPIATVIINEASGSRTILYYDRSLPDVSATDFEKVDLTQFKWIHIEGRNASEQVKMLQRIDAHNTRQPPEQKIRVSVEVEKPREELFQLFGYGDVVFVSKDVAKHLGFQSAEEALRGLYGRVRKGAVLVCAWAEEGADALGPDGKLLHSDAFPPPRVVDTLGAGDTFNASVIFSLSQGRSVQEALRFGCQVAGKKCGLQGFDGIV
Test: KHK Biochemical Assay (IC50), ADP-Glo, KHK-A
Details: ADP-Glo; average of at least two separate assays
Please provide the amount together with its unit, number first.

NC(=O)c1ccc(-c2nc(N3CCCC3)nc3c2CCC3)cc1 ... 2110 nM
COc1ccc(-c2nc(N3C[C@@](C)(O)[C@@H]3C)nc3c2CCC3(F)F)cc1[S@@](C)(=N)=O ... 2 nM
C[C@H]1CCN1c1nc2c(c(-c3ccc(C4(N5CCN(C)CC5)CC4)cc3)n1)CCC2 ... 636 nM

For every item in the list below, what is its measured IC50?
1. C[C@H]1CCN1c1nc2c(c(-c3cccc(S(=N)(=O)c4ccc(C#N)cc4C4CC4)c3)n1)CCC2 (some centres unmarked)
2. C[C@H]1CCN1c1nc2c(c(-c3cc4cc(C(=O)O)ccc4[nH]3)n1)CCC2
3. C[C@H]1CCN1c1nc(-c2ccns2)c2c(n1)C1CC1C2 (some centres unmarked)
4. C[C@H]1CCN1c1nc2c(c(-c3ccc4c(c3)CC(=O)N4)n1)CCC2
5. C[C@H]1CCN1c1nc2c(c(-c3cccc(C(=O)Nc4cc[nH]n4)c3)n1)CCC2

Solution:
1. 200 nM
2. 186 nM
3. 433 nM
4. 79.6 nM
5. 150 nM

* * *

Biological target: human KHK-C (Homo sapiens (Human))
Sequence (P50053 whole entry): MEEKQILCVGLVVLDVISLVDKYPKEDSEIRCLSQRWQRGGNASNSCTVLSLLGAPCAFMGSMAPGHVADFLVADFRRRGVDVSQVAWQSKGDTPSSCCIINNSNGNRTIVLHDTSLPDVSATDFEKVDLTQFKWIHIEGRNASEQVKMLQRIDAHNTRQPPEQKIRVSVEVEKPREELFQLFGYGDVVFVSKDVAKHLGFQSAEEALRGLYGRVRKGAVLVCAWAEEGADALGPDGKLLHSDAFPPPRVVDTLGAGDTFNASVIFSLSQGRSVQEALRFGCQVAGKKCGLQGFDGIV
Assay: KHK Biochemical Assay (IC50), ADP-Glo, KHK-C
Conditions: average of at least two separate assays
For each record, write down the corresponding IC50.
Give bare numbers, in nM.

C[C@H]1[C@H](O)CN1c1nc(-c2ccc(C(F)F)c(S(C)(=N)=O)c2)c2c(n1)C(F)(F)CC2 (stereo partly shown) [Example 721] ... 23.2
C[C@H]1CCN1c1nc2c(c(-c3cccc([C@H]4C[C@@H](C(=O)O)C4)c3)n1)CCC2 (single isomer, unassigned) [Example 440] ... 6.2
C[C@H]1[C@H](O)CN1c1nc(-c2ccc3c(c2)C2CC(C2)NC3=O)c2c(n1)C(F)(F)CC2 [Example 520] ... 11.1

For every item in the list below, what is its measured IC50?
1. C[C@H]1CCN1c1nc(-c2ccc3c(c2)OC[C@@H]3NS(C)(=O)=O)c2c(n1)C(F)(F)CC2 [Example 528]
2. O=C1NC(=O)C2(COc3cc(-c4nc(N5CC[C@@H]5C(F)(F)F)nc5c4CCC5(F)F)ccc32)N1 (stereo partly shown) [Example 703]
3. CS(=O)(=O)N[C@H]1COc2cc(-c3nc(N4CC[C@@H]4C(F)(F)F)nc4c3CCC4(F)F)ccc21 [Example 577]
4. C[C@H]1CCN1c1nc2c(c(-c3ccc4c(c3)[C@]3(C[C@@H]3C(N)=O)C(=O)N4)n1)CCC2 (mixture of isomers) [Example 413]
5. CS(=O)(=O)N[C@H]1COc2cc(-c3nc(N4C[C@@H](O)[C@@H]4CF)nc4c3CCC4(F)F)ccc21 [Example 484]
6. Cc1ccc(-c2nc(N3C[C@@H](O)[C@@H]3C)nc3c2CCC3(F)F)cc1S(C)(=N)=O (stereo partly shown) [Example 718]
7. CCCN1C(=O)NC2(COc3cc(-c4nc(N5C[C@@H](O)[C@@H]5C)nc5c4CCC5(F)F)ccc32)C1=O (stereo partly shown) [Example 693]

Solution:
[0.2, 0.4, 0.6, 74.4, 1.2, 4.2, 0.2]

For every item in the list below, what is its measured IC50?
1. C[C@H]1[C@H](O)CN1c1nc(-c2ccc3c(c2)COC[C@@H]3NS(=O)(=O)C2CC2)c2c(n1)C(F)(F)CC2 [Example 579]
2. CC(=O)NC1COc2cc(-c3nc(N4CC[C@@H]4C)nc4c3CCC4(F)F)ccc21 (stereo partly shown) [Example 767]
3. C[C@H]1CCN1c1nc(-c2ccc(C3(N)CS(=O)(=O)C3)cc2)c2c(n1)C(F)(F)CC2 [Example 769]
4. CS(=N)(=O)c1cccc(-c2nc(N3CC[C@@H]3C#N)nc3c2CCC3(F)F)c1 (stereo partly shown) [Example 709]
5. C[C@H]1[C@H](O)CN1c1nc(-c2ccc3c(c2)OCC32NC(=O)N(C3COC3)C2=O)c2c(n1)C(F)(F)CC2 (stereo partly shown) [Example 694]
6. C[C@H]1[C@H](O)CN1c1nc(-c2ccc3c(c2)[C@@H](NS(C)(=O)=O)CO3)c2c(n1)C(F)(F)CC2 [Example 614]

Solution:
2.7
4.8
0.8
41.7
0.4
1.5

For every item in the list below, what is its measured IC50?
1. C[C@H]1[C@H](O)CN1c1nc2c(c(-c3ccc4cnc(N)cc4c3)n1)CCC2 [Example 448]
2. CC1OC[C@@]2(COc3cc(-c4nc(N5C[C@@H](O)[C@@H]5C)nc5c4CCC5(F)F)ccc32)NC1=O (single isomer, unassigned) [Example 559]
3. C[C@H]1[C@H](O)CN1c1nc(-c2ccc3c(c2)COC[C@]32COC(=O)N2)c2c(n1)C(F)(F)CC2 (single isomer, unassigned) [Example 556]
4. C[C@H]1[C@H](O)CN1c1nc(-c2ccc3c(c2)OCC32COCC(=O)N2)c2c(n1)C(F)(F)CC2 (stereo partly shown) [Example 497]
5. C[C@H]1CCN1c1nc(-c2ccc3c(c2)[C@@H](NS(C)(=O)=O)CC3)c2c(n1)C(F)(F)CC2 (single isomer, unassigned) [Example 609]
6. CNC1(c2ccc(-c3nc(N4C[C@@H](F)[C@@H]4C)nc4c3CCC4(F)F)cc2)CS(=O)(=O)C1 [Example 770]

Solution:
121
0.2
26.6
0.1
1
5.7

For every item in the list below, what is its measured IC50?
1. C[C@H]1CCN1c1nc2c(c(-c3ccc4c(c3)OCC4N)n1)CCC2 (stereo partly shown) [Example 754]
2. C[C@H]1[C@H](O)CN1c1nc(-c2ccc3c(c2)OC[C@@]32NC(=O)OC2(C)C)c2c(n1)C(F)(F)CC2 (single isomer, unassigned) [Example 567]

Solution:
[1.9, 44.3]

Source: patent US12410160B2
